// provenance: PubChem BioAssay AID602363

I'd be grateful if you could share measured activity score for these entries.
test: modulators of yeast start codon fidelity, primary screen, whole organism, S. cerevisiae, single point, plate reader (AID 602363);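 note: firefly luciferase made from a UUG start codon reports start codon fidelity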; details: S. cerevisiae UUG-firefly luciferase reporter, luminescence/redox ratio; at 18.7 µM; stronger effect = higher value
Out of some 350,000 compounds screened, about 450 (0.13%) were called active. Shown is part of a subset that was picked to be rich in actives.
Give bare numbers, in %.

structure_smiles_string: O=C(NCC[C@@H]1CC[C@H](NC(=O)C2CC2)[C@@H](CO)O1)c1cc(Cl)cc(Cl)c1
activity score (%): 4.52
--
structure_smiles_string: COCCCNC(=O)[C@@]1(C)c2ccccc2C(=O)N(Cc2ccc(OC(F)(F)F)cc2)[C@H]1c1ccc(CO)cc1
activity score (%): 2.89

For each of the items listed, what is its activity score?
1. CC(C)N1C(=O)[C@@]2(Cc3ccccc31)c1ccccc1C(=O)N(C1CCCCC1)[C@H]2c1ccc(CO)cc1
2. CS(=O)(=O)Nc1ccc2c(c1)[C@H]1C[C@@H](CC(=O)N3CCOCC3)O[C@@H](CO)[C@H]1O2
3. Cc1noc(C)c1S(=O)(=O)N(C)C[C@@H]1OCCCC[C@H](C)Oc2ccc(NC(=O)NC(C)C)cc2C(=O)N([C@H](C)CO)C[C@@H]1C
4. CC(C)CC#Cc1cnc2c(c1)C(=O)N([C@H](C)CO)C[C@H](C)[C@@H](CN(C)Cc1ccccc1)O2
5. Cn1nc(-c2ccccc2)c(-c2nc(-c3ccc(Cl)cc3)no2)c1Cl
6. CC(=O)N1C[C@@H]2[C@H](c3ccccc31)[C@H](CO)N2C(=O)Nc1ccc(F)cc1

69
-23.5
27
16.5
-23.8
27

Hi! Can you tell me activity score for each of these compounds?
1. O=C(Cc1ccccn1)NCC[C@H]1CC[C@H](NS(=O)(=O)c2ccccc2)[C@@H](CO)O1
2. CC(C)C#Cc1ccc2c(c1)O[C@@H](CN(C)C(=O)Nc1ccccc1)[C@H](C)CN([C@H](C)CO)S2(=O)=O
3. COc1ccc(CCN2C(=O)[C@@]3(Cc4ccccc42)c2ccccc2C(=O)N(Cc2ccccc2C(F)(F)F)[C@H]3c2ccc(CO)cc2)cc1
4. CCOC(=O)C(=Cc1ccccc1)C(=O)c1ccccc1

[7.13, -2.56, 153, -13]

Lab note: each compound below needs its activity score filled in.
1. CC(=O)Nc1ccccc1-c1cn(CC(=O)N2CCOCC2)nn1
2. C[C@@H]1CN([C@H](C)CO)C(=O)Cc2cc(NS(=O)(=O)c3ccc(Cl)cc3)ccc2O[C@H]1CN(C)S(=O)(=O)c1cccs1
3. N#Cc1cccc(-c2ccc3c(c2)[C@H]2[C@H](CCN2S(=O)(=O)c2ccc(F)cc2)[C@@H](CO)N3)c1
4. CCOC(=O)C(=Cc1ccccc1OC)C(=O)OCC
5. COc1cc(-c2c(-c3ccc4c(c3)OCO4)noc2C)ccc1F
6. O=C(c1ccncc1)N1C[C@H]2[C@@H](c3ccccc31)[C@H](CO)N2C(=O)c1ccccn1

127
-8.01
-15.3
448
-5.42
-20.1
